Data credit: the RNAGym collection of RNA variant scans (doi:10.1073/pnas.2313332121)

Recorded measurements of polymerase ribozyme fitness (log ratio), one per entry
B1: TPR 5TU (parent)
chain: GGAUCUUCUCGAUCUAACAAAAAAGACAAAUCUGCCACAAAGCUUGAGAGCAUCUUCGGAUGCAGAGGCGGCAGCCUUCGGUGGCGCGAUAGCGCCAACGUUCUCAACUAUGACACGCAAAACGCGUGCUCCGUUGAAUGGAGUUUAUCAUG

Variants of: B1
test: polymerase ribozyme fitness, log enrichment relative to wild type (log ratio); higher = more active; in vitro selection for triplet polymerase activity
This sample holds only a part of the variants without activity.
Output spec: single numeric token, no unit.

{"changes": "G34A A91G", "polymerase ribozyme fitness (log ratio)": -3.57}
{"changes": "G50C C118A", "polymerase ribozyme fitness (log ratio)": -4.05}
{"changes": "G11A U104A A119U G136A U144A", "polymerase ribozyme fitness (log ratio)": -2.19}
{"changes": "C96U A107U", "polymerase ribozyme fitness (log ratio)": -3.35}
{"changes": "C10U G92A G141C", "polymerase ribozyme fitness (log ratio)": -3.99}
{"changes": "A89U G94C A98G A150G", "polymerase ribozyme fitness (log ratio)": -2.68}
{"changes": "A17G C76U", "polymerase ribozyme fitness (log ratio)": -0.119}
{"changes": "A24C G34A C87A G126U", "polymerase ribozyme fitness (log ratio)": -4.18}
{"changes": "A16U A19G C57A", "polymerase ribozyme fitness (log ratio)": -2.39}
{"changes": "A52G A73U G84A", "polymerase ribozyme fitness (log ratio)": -2.15}

Assign polymerase ribozyme fitness (log ratio) to the following record: U55C C85U G136C
-3.51

Given the variant A12U C85U , write its reported polymerase ribozyme fitness (log ratio).
-0.742

Quick one: give measured polymerase ribozyme fitness (log ratio) for G86U
-1.62

Note down polymerase ribozyme fitness (log ratio) recorded for C32U A147C
-2.55

Note down polymerase ribozyme fitness (log ratio) recorded for A20C C32A A52G A91U G94A C99U A147U G152U
-3.97

Consider the variant C116U C125G . State its measured polymerase ribozyme fitness (log ratio).
1.23
